Listing of recorded melting point by entry.

As a guide, the following entries are already answered.
C#CC(C)(O)[C@H]1CC[C@H]2[C@@H]3CC[C@H]4C[C@@H](OC)CC[C@]4(C)[C@H]3CC[C@]12C (some centres unmarked)    168 to 169 °C
CC#C[C@]1(O)CCC2C3CC=C4C[C@@H](F)CC[C@]4(C)C3CC[C@@]21C (some centres unmarked)    136 to 137 °C
CC(=O)O[C@H]1CCC2C3CC=C4C[C@@H](F)CC[C@@H]4C3CC[C@@]21C (some centres unmarked)    104 to 105 °C
C#C[C@]1(O)CCC2C3CC=C4C[C@@H](F)CC[C@@H]4C3CC[C@@]21C (some centres unmarked)    149 to 150 °C
C#C[C@]1(O)CCC2C3CC=C4C[C@@H](F)CC[C@]4(C)C3CC[C@@]21C (some centres unmarked)    219 to 220 °C
CC(=O)[C@H]1CC[C@H]2[C@@H]3CC[C@H]4C[C@@H](F)CC[C@]4(C)[C@H]3CC[C@]12C    154 to 155 °C

The recorded melting point for CC#C[C@]1(O)CCC2C3CC[C@H]4C[C@@H](F)CC[C@]4(C)C3CC[C@@]21C (some centres unmarked) is 139 to 140 °C

The recorded melting point for C[C@]12CCC3C(CC=C4C[C@@H](F)CC[C@@H]43)C1CC[C@@H]2O (some centres unmarked) is 121 to 122 °C

The recorded melting point for C#C[C@]1(O)CCC2C3CC[C@H]4C[C@@H](F)CC[C@]4(C)C3CC[C@@]21C (some centres unmarked) is 225 to 226 °C

The recorded melting point for CC1CCC2C3CCC4=CC(O)CC[C@]4(C)C3CC[C@]2(C)[C@H]1F (single isomer, unassigned) is 125 to 126 °C

The recorded melting point for C#CC(C)(O)[C@H]1CC[C@H]2[C@@H]3CC=C4C[C@@H](F)CC[C@]4(C)[C@H]3CC[C@]12C (some centres unmarked) is 213 to 214 °C

The recorded melting point for CC1CCC2C3CCC4=CC(=O)CC[C@]4(C)C3CC[C@]2(C)[C@H]1F (some centres unmarked) is 170 to 171 °C

The recorded melting point for "C[C@]12CC[C@H](F)C[C@@H]1CC[C@@H]1[C@@H]2CC[C@]2(C)C(=O)CC[C@@H]12" is 126 to 127 °C

The recorded melting point for "C[C@]12CCCC[C@@H]1CC[C@@H]1[C@@H]2CC[C@]2(C)C(=O)CC[C@@H]12" is 120 to 121 °C

The recorded melting point for C#CC(C)(O)[C@H]1CC[C@H]2[C@@H]3CC[C@H]4C[C@@H](F)CC[C@]4(C)[C@H]3CC[C@]12C (some centres unmarked) is 230 to 231 °C

The recorded melting point for C#CC(C)(O)[C@H]1CC[C@H]2[C@@H]3CC=C4C[C@@H](OC)CC[C@]4(C)[C@H]3CC[C@]12C (some centres unmarked) is 175 to 176 °C

###

Listing of recorded Emax by entry.
- Tested Target: hGR (Homo sapiens, UniProt P04150)
- Construct: expressed in transfected cells; host or cells: HEK 293T
- Sequence (P04150 1-777): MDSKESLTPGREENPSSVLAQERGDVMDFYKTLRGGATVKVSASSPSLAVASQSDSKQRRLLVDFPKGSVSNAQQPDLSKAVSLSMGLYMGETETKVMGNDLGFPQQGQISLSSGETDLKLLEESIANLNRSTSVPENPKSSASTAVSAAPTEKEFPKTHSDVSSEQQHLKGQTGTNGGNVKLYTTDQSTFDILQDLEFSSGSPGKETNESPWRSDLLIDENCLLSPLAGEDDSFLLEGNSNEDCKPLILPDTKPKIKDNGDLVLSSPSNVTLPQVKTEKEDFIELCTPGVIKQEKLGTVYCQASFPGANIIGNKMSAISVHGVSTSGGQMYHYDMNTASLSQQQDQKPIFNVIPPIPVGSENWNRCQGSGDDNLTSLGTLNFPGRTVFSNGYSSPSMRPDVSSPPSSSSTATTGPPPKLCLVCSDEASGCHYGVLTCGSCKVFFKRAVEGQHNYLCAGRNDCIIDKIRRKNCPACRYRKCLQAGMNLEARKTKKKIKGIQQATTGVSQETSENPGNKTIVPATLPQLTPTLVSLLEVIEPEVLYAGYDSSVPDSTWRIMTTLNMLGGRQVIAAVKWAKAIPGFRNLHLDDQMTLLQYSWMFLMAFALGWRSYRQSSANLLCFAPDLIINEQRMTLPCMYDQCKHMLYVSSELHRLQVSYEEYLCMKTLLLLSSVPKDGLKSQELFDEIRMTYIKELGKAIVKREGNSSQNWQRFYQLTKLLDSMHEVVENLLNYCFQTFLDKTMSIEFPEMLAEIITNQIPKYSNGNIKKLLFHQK
- Assay: APRn selectivity: transactivation in HEK293T cells transiently expressing hGR
- Type: cell-based
- Particulars: HEK-293T; HEK293T transiently expressing hGR, mean±SEM; read-out: GR Agonist efficacy (%)
Respond with the bare value in %.

C[C@]12CC[C@H](F)C[C@@H]1CC[C@@H]1[C@@H]2CC[C@]2(C)[C@@H](O)CC[C@@H]12    0.3
CC(=O)[C@H]1CC[C@H]2[C@@H]3CC=C4C[C@@H](F)CC[C@]4(C)[C@H]3CC[C@]12C    0.25

The recorded Emax for CC#C[C@]1(O)CCC2C3CC=C4C[C@@H](F)CC[C@]4(C)C3CC[C@@]21C (stereo partly drawn) is 0.2

The recorded Emax for C#C[C@]1(O)CCC2C3CC=C4C[C@@H](F)CC[C@@H]4C3CC[C@@]21C (stereo partly drawn) is 0.25

The recorded Emax for CC#C[C@]1(O)CCC2C3CC[C@H]4CCCC[C@]4(C)C3CC[C@@]21C (stereo partly drawn) is 0.22

The recorded Emax for CC#C[C@]1(O)CCC2C3CC[C@H]4CCCC[C@@H]4C3CC[C@@]21C (stereo partly drawn) is 0.15
